- ASSAY: binders of probe aFSTL3 on microarray, primary screen, stem cell growth factor project, biochemical, small-molecule microarray, fluorescence 635/667 (AID 1064);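 note: measures binding of the biotinylated anti-FSTL3 antibody to printed compounds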
- SETUP CONDITIONS: higher = more signal
# composite z-score values compiled below
Give the figure only, with no unit attached.

Past entries and their recorded results:
MOLECULE: CCCCCN1CC=CC23O[C@@H]4/C=C\CCCOC(=O)C4[C@H]2C(=O)N(C(CO)C(C)C)[C@@H]3C1=O (some centres undefined)
REPORTED METRIC: composite z-score
REPORTED RESULT: -0.101
--
MOLECULE: C=CCOC(=O)[C@@H]1[C@H]2C(=O)O[C@H](c3ccccc3)[C@H](c3ccccc3)N2[C@H](c2ccc(OCCOC(=O)[C@@H]3C[C@@H]4C(=O)N[C@@H](Cc5ccccc5)C(=O)N4[C@@H]3c3ccc(O)cc3)cc2)[C@@]12C(=O)Nc1ccc(I)cc12
REPORTED METRIC: composite z-score
REPORTED RESULT: -0.219
--
MOLECULE: C=C/C=C/[C@H]1C(=C)CN([C@@H](Cc2ccccc2)C(=O)OC)[C@@H]1[C@H](O)Cc1ccccc1
REPORTED METRIC: composite z-score
REPORTED RESULT: 0.042
--
MOLECULE: C=CC[C@]12N=C(c3ccc(OCCCO)cc3)O[C@H]1c1ccccc1N(Cc1ccccc1)C2=O
REPORTED METRIC: composite z-score
REPORTED RESULT: 1.67

I'd like to know its composite z-score. The molecule in question is `CN(C)C(=O)[C@]1(Cc2ccccc2N=[N+]=[N-])N=C(c2ccc(OCCCO)cc2)O[C@@H]1c1ccccc1` 0.127

I'd like to know its composite z-score. The molecule in question is `COc1ccc([C@H]2OC[C@@H]3CC4(CC=CC4)C(=O)N32)cc1` 0.0596

I'd like to know its composite z-score. The molecule in question is COc1ccc(C(=O)O[C@H]2CC[C@]3(C)C4=C(CCC3C2(C)C)[C@]2(C)CC[C@H]([C@H](C)CCCC(C)C)[C@@]2(C)CC4)cc1 (some centres undefined) -0.581

I'd like to know its composite z-score. The molecule in question is `CCOC(=O)C[C@H]1[C@H](OC(=O)Cc2ccc3c(c2)OCO3)[C@@H](NC(=O)c2ccc(-c3ccccc3)cc2)c2cc(OCCCO)ccc2N1C(=O)Cc1ccc(OC)cc1` -0.429

----------
- ASSAY: FRG1 promoter luciferase signal modulators, primary screen, FRG1 inhibition for FSHD, cell-based, C2C12 myotubes, firefly/Renilla luciferase, luminescence (AID 1084)
- SETUP CONDITIONS: higher = more signal, called active from +8 up or from −8 down
Use satisfied when the recorded z-score is no lower than 0.5; use not satisfied when it is lower.

Example entries begin here.
COMPOUND: O=C1c2ccccc2[C@](Cc2ccccc2I)(C(=O)NC2CC2)[C@H](c2ccc(CO)cc2)N1C1CCCCC1
CATEGORY: not satisfied
--
COMPOUND: COCCOC(=O)N1C(=O)[C@@]2(c3cc(C#Cc4ccc(OC)cc4)ccc31)[C@H](c1ccc(O)cc1)N1[C@H](c3ccccc3)[C@H](c3ccccc3)OC(=O)[C@H]1[C@@H]2C(=O)NC[C@H](O)c1ccccc1
CATEGORY: not satisfied

Check if z-score >= 0.5 (inclusive). Item: `COCCOC(=O)N1C(=O)[C@@]2(c3cc(C#CC4=CCCCC4)ccc31)[C@H](c1ccc(O)cc1)N1[C@H](c3ccccc3)[C@H](c3ccccc3)OC(=O)[C@H]1[C@@H]2C(N)=O` not satisfied

Check if z-score >= 0.5 (inclusive). Item: CC1CC/C=C\[C@H]2OC34C=CCN(c5ccc(Cl)cc5)C(=O)[C@H]3N(CCO)C(=O)[C@]4(C)C2C(=O)O1 (some centres not stated) not satisfied

Check if z-score >= 0.5 (inclusive). Item: `COC(=O)[C@@]1(Cc2ccccc2)[C@H]2c3cc(C(=O)N4CCCC4)n(Cc4nc5ccccc5[nH]4)c3C[C@H]2CN1C(=O)c1ccccc1` satisfied

Check if z-score >= 0.5 (inclusive). Item: `C=C(COC)/C(=C/C[C@@H](OC(C)=O)c1ccc(CO)o1)c1cnc2ccccc2c1` satisfied

----------
- TARGET SYSTEM: Carbonic anhydrase 2 (Homo sapiens) (UniProt P00918)
- ASSAY: CAII small-molecule binders, profiling panel, biochemical, small-molecule microarray, Alexa647-labelled CAII (AID 1122)
- SETUP CONDITIONS: CAII-A647 binding fluorescence, higher = more signal
Use satisfied when the recorded composite z-score is no lower than 0.4; use not satisfied when it is lower.

MOLECULE: C=CCOC(=O)[C@@H]1[C@H]2C(=O)O[C@H](c3ccccc3)[C@H](c3ccccc3)N2[C@H](c2ccc(OCCOC(=O)[C@@H]3C[C@@H]4C(=O)N[C@@H](CCCCN(C)C)C(=O)N4[C@@H]3c3ccc(O)cc3)cc2)[C@@]12C(=O)Nc1ccc(I)cc12
CATEGORY: not satisfied
--
MOLECULE: COC(=O)c1c(CC[C@@H](CO)NC(=O)N[C@@H](C)Cn2cc(C3(O)CCCCC3)nn2)oc(C(C)=O)c1C(=O)OC
CATEGORY: satisfied
--
MOLECULE: COCCCNC(=O)[C@@]1(Cc2ccccc2)N=C(c2ccc(OCCCO)cc2)O[C@H]1c1ccccc1
CATEGORY: satisfied
--
MOLECULE: CN(C)C(=O)[C@@]1(Cc2ccccc2CN=[N+]=[N-])N=C(c2ccc(OCCCO)cc2)O[C@H]1c1ccccc1
CATEGORY: not satisfied
--
MOLECULE: COc1ccc([Si](C)(C)[C@H]2[C@H](CCn3cc([C@H](O)c4ccccc4)nn3)O[C@@]3(C(=O)N(Cc4cccc(N5CCOC5=O)c4)c4ccccc43)[C@@H]2C)cc1
CATEGORY: not satisfied
--
MOLECULE: CC(C)(C)C(=O)N[C@@H](c1ccc(Cl)cc1)[C@]1(C)C[C@H]1C1CCCCC1
CATEGORY: satisfied

// switching to the query molecule
Check if composite z-score >= 0.4 (inclusive). Item: C=C(C)C1C(=C)CN([C@H](CO)c2ccccc2)C1=O (some centres not stated) not satisfied

----------
- ASSAY: modulators of HCV replicon luciferase signal, primary screen, HCV replication inhibitor project, Huh7 cells, luciferase reporter (AID 1109);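 note: huh7 hepatoma cells harbouring a luciferase neomycin HCV replicon reporter; luciferase luminescence as measure of HCV replicon replication; test concentration not given here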
- SETUP CONDITIONS: 48 h, higher = more signal
# z-score values compiled below

MOLECULE: NCCCCCNC(=O)[C@@H]1C[C@@H]2C(=O)NCC(=O)N2[C@@H]1c1ccc(O)cc1
REPORTED RESULT: 0.358

MOLECULE: C=CCN1C(=O)[C@]2(O[C@H](CCO)[C@@H]([Si](C)(C)c3ccc(OC)cc3)[C@@H]2C)c2cc(N3C(=O)c4cccc5cccc3c45)ccc21
REPORTED RESULT: -5.11

MOLECULE: COCCn1c(C(=O)N2CCCC2)cc2c1C[C@H]1CN(C(=O)c3ccccc3)[C@@](Cc3ccc(F)cc3)(C(=O)OC)[C@@H]21
REPORTED RESULT: -1.42

MOLECULE: COc1ccc(C(O)C2C=CC3C(=O)N(c4ccccc4)C(=O)C3N2Nc2ccccc2F)cc1OCc1ccccc1 (stereo not given)
REPORTED RESULT: -0.0689

MOLECULE: COCCOC(=O)N1C(=O)[C@@]2(c3cc(C#CC4=CCCCC4)ccc31)[C@H](C(N)=O)[C@H]1C(=O)O[C@H](c3ccccc3)[C@H](c3ccccc3)N1[C@@H]2c1ccc(OCCO)cc1
REPORTED RESULT: -2.5

I'd like to know its z-score. The molecule in question is `CN1C(=O)[C@]2(Cc3ccccc3)N=C(c3ccc(OCCCO)cc3)O[C@@H]2c2ccccc21` -1.36

I'd like to know its z-score. The molecule in question is CN1C(=O)C2C=CC(C(O)C3CC=CCC3)N(NC(=O)OC(C)(C)C)C2C1=O (stereo not given) -0.0017

I'd like to know its z-score. The molecule in question is O=C1C2C=CC(C(O)C(c3ccccc3)c3ccccc3)N(n3cnnc3)C2C(=O)N1Cc1ccccc1 (stereo not given) -0.832

I'd like to know its z-score. The molecule in question is CN1C(=O)C2C=CC(C(O)C3=C[C@H]4C[C@@H](C3)C4(C)C)N(Nc3ccccc3)C2C1=O (stereo not given in full) -0.181

I'd like to know its z-score. The molecule in question is `COCCOC(=O)N1C(=O)[C@@]2(c3cc(C#CC4(O)CCCCCC4)ccc31)[C@H](c1ccc(O)cc1)N1[C@H](c3ccccc3)[C@H](c3ccccc3)OC(=O)[C@H]1[C@@H]2C(=O)Nc1nc2ccccc2s1` -0.768

I'd like to know its z-score. The molecule in question is CC(C)(C)OC(=O)CC[C@@]1(C(=O)NCC(O)CO)N=C(c2ccc(OCCCO)cc2)O[C@@H]1c1ccccc1N=[N+]=[N-] (stereo not given in full) 0.0173

I'd like to know its z-score. The molecule in question is O=C1C2C=CC(C(O)c3c(F)cccc3Cl)N(Nc3ccccc3)C2C(=O)N1c1ccccc1 (stereo not given) -0.927

I'd like to know its z-score. The molecule in question is `CCCC=C(CCC)[C@@H](NS(=O)(=O)c1cccs1)c1ccc(C(=O)OC)cc1` -2.93

I'd like to know its z-score. The molecule in question is `CCCC[C@@H]1C[C@H]1[C@@H](NC(=O)c1ccco1)c1ccc(Cl)cc1` -2.37

I'd like to know its z-score. The molecule in question is `COC(=O)[C@@]1(Cc2ccc(OC)cc2)[C@H]2c3cc(C(=O)N4CCCC4)n(Cc4ccccc4)c3C[C@H]2CN1C(=O)c1ccccc1` -1.76
